Reported growth inhibition values are given for each entry in this list.
- protocol_text: NCI Yeast Anticancer Drug Screen. Data for the bub3 strain (AID 167)
- condition_set: S. cerevisiae bub3 mutant strain, at 50.0 µM, hits give high values
This is part of a sample that, as a whole, favours compounds with a hit. Of some 79,000 tested, about 15% had one in any assay. Activity calls are given as the source filed them. Cut-off read from the data, not from the text of the source: active = growth inhibition above about 70%; inactive = the rest.

CCCC(O)CO (stereo not given)
-0.5% (inactive)
Cc1n[nH]c(=O)n1N1C(=O)c2ccccc2C1=O
-19.6% (inactive)
O=C(Nc1nccs1)Nc1cc(F)ccc1F
36.6% (inactive)

stdin: Please report growth inhibition for the following compound: "CCCCCCCCCCCCCCCCOc1ccc(/C=N/Nc2ccccc2)cc1OC"
stdout: -32% (inactive)

stdin: Please report growth inhibition for the following compound: C=CC(CCCC(C=C)OC(C)=O)OC(C)=O (stereo not given)
stdout: 5.6% (inactive)

stdin: Please report growth inhibition for the following compound: "c1ccc2nc(N3CCCC3)c(N3CCCC3)nc2c1"
stdout: 57.8% (inactive)
